- experimental.details: Cytotoxicity, resazurin cell viability test
- Assay type: cell-based, human
- cond: human, SH-SY5Y cells
Please assign rule not met whenever IC50 is at or above 100 µM, and rule met whenever it is below.

compound	answer.label
COc1ccc(C(=O)C(C)N2CCN(Cc3ccccc3)CC2)cc1 (centres unmarked) [5h]	rule not met
CC(C(=O)c1ccc(O)cc1)N1CCN(Cc2ccccc2)CC1 (centres unmarked) [5k]	rule not met
CC(C(=O)c1ccccc1)N1CCN(Cc2ccccc2)CC1 (centres unmarked) [5d]	rule not met
COc1ccc(C(=O)C(C)N2CCCN(Cc3ccccc3)CC2)cc1 (centres unmarked) [5e]	rule met

Ask | Does CC(C(=O)c1ccc(O)cc1)N1CCCN(Cc2ccccc2)CC1 (centres unmarked) [5i] have IC50 strictly under 100 µM?
Reply | rule not met
